Exercise: for every item that follows, state its recorded Vd.
test.name: Volume of distribution upon i.v. (1 mg/kg) and p.o. (2 mg/kg) dose in male rhesus macaques (n=2)
Format: ADME, organism-based
condition.description: cercopithecidae, in vivo, iv
All answers are understood in L/kg, so give the number only.

Look at this molecule and give its reported Vd. NCc1ccc(Cl)cc1CNC(=O)[C@@H]1CCCN1C(=O)C1(O)c2ccccc2-c2c1ccc[n+]2[O-] (stereo in doubt; form 2)
2

Look at this molecule and give its reported Vd. NCc1ccc(Cl)cc1CNC(=O)[C@@H]1CCCN1C(=O)C1(O)c2ccccc2-c2cnccc21 (stereo in doubt; form 2)
2.2

Look at this molecule and give its reported Vd. NCc1ccc(Cl)cc1CNC(=O)[C@@H]1CCCN1C(=O)C1(O)c2ccccc2-c2ncccc21 (stereo in doubt)
1.2

###

test.name: Area under concentration time curve in plasma was determined upon peroral dose at 1.0 mg/kg in male Beagle dogs (n=2)
Format: ADME, organism-based, Canis lupus familiaris
Parameters: dose 1 mg/kg, route oral
condition.description: male, Beagle, dog, plasma, po, read-out: AUC
reported.metric: AUC (µM·h)
All answers are understood in µM·h, so give the number only.

Look at this compound and give its reported AUC. NCc1ccc(Cl)cc1CNC(=O)[C@@H]1CCCN1C(=O)C1(O)c2ccccc2-c2ccc[n+]([O-])c21 (stereo in doubt; form 1)
0.029

Look at this compound and give its reported AUC. `N[C@H]1CC[C@H](CNC(=O)[C@@H]2CCCN2C(=O)C2(O)c3ccccc3-c3ccccc32)CC1`
32

Look at this compound and give its reported AUC. NCc1ccc(Cl)cc1CNC(=O)[C@@H]1CCCN1C(=O)C1(O)c2ccccc2-c2cc[n+]([O-])cc21 (stereo in doubt; form 2)
0.28

Look at this compound and give its reported AUC. NCc1ccc(Cl)cc1CNC(=O)[C@@H]1CCCN1C(=O)C1(O)c2ccccc2-c2ncccc21 (single isomer, unassigned)
14

Look at this compound and give its reported AUC. NCc1ccc(Cl)cc1CNC(=O)[C@@H]1CCCN1C(=O)C1(O)c2ccccc2-c2c1ccc[n+]2[O-] (stereo in doubt; form 2)
2.9

Look at this compound and give its reported AUC. NCc1ccc(Cl)cc1CNC(=O)[C@@H]1CCCN1C(=O)C1(O)c2ccccc2-c2c[n+]([O-])ccc21 (stereo in doubt; form 2)
1.5

Look at this compound and give its reported AUC. `NCc1ccc(Cl)cc1CNC(=O)[C@@H]1CCCN1C(=O)C1(O)c2ccccc2-c2ccccc21`
32

Look at this compound and give its reported AUC. NCc1ccc(Cl)cc1CNC(=O)[C@@H]1CCCN1C(=O)C1(O)c2ccccc2-c2ccncc21 (stereo in doubt; form 1)
12

###

Exercise: for every item that follows, state its recorded T1/2.
test.name: Plasma half-life of compound upon peroral dose at 1.0 mg/kg in male Beagle dogs (n=2)
Assay type: ADME, organism-based, Canis lupus familiaris
Design: dose 1 mg/kg, route oral
condition.description: dog, in vivo, po
All answers are understood in h, so give the number only.

Look at this compound and give its reported T1/2. NCc1ccc(Cl)cc1CNC(=O)[C@@H]1CCCN1C(=O)C1(O)c2cc(Cl)ccc2-c2ncccc21 (single isomer, unassigned)
3.8

Look at this compound and give its reported T1/2. NCc1ccc(Cl)cc1CNC(=O)[C@@H]1CCCN1C(=O)C1(O)c2ccccc2-c2ccncc21 (stereo in doubt; form 1)
2.5

Look at this compound and give its reported T1/2. NCc1ccc(Cl)cc1CNC(=O)[C@@H]1CCCN1C(=O)C1(O)c2ccccc2-c2cnccc21 (stereo in doubt; form 2)
14

Look at this compound and give its reported T1/2. NCc1ccc(Cl)cc1CNC(=O)[C@@H]1CCCN1C(=O)C1(O)c2ccccc2-c2ccncc21 (stereo in doubt; form 2)
10
